Data origin, for the record: PubChem BioAssay (NCI)

# Test system: NCI-H23 lung
# assay-info: NCI-60 one-dose screen, 48 h (100 = growth as untreated, 0 = no growth, -100 = all killed)
# protocol-conditions: 10 µM unless noted
Compounds without any hit were thinned out: in the full panel of roughly 83,000, 20% have a hit.
reported-metric: growth (%)
Reply numerically in %, unit not repeated.

Some entries whose results are on file:
CCCCCCCC[N+](C)(CCCCCCCC)CCCCCCCC ... -97
CC1(C)CN1P(=O)(N1CC1(C)C)N1CC1(C)C (stereo not given) ... 105
C=CC[PH+](c1ccccc1)c1ccccc1.C=CC[PH+](c1ccccc1)c1ccccc1.[Cl][Pt][Cl] ... 58.8
COC(=O)C1OC(Oc2ccc(N(CCCl)CCCl)cc2)C(OC(C)=O)C(OC(C)=O)C1OC(C)=O (stereo not given) ... 92.9

Give the measured growth of `Nc1c(F)cc(-c2nc3cc(F)ccc3[se]2)cc1F` .
49.4
